- Protocol Text: Single-dose oral pharmacokinetics of CBD oil in beagles (serum CBD by LC-MS)
- Assay type: in vivo
- Experimental Setup: male, beagle, dog, median of 4 dogs, 8 mg/kg single oral dose, read-out: T½ elim (converted)
- Protocol: An initial investigation into single-dose oral pharmacokinetics was performed with 4 beagles (3.5-7 years, male castrated, 10.7-11.9 kg). Each dog received a 2 mg/kg and an 8 mg/kg oral dosage of CBD oil, with a 2-week washout period between each experiment. The dogs were fed two hours after dosing. […] Attitude, behavior, proprioception, and gait were subjectively evaluated at each time point during free running/walking and navigation around standard traffic cones (weaving). […]
Endpoint Name: half-life (h)
Numbers only; they are read as h.

// recorded half-life for C=C(C)[C@@H]1CCC(C)=C[C@H]1c1c(O)cc(CCCCC)cc1O : 4.2
